These entries and their values trace back to ChEMBL document CHEMBL3994569.

assay: Cytotoxicity against HEL cells infected with Varicella-Zoster virus assessed as alteration in cell morphology by microscopic method; assay type: cell-based; conditions: human, HEL cells infected with Varicella-Zoster virus
Kindly supply the reported MCC values for the records listed here.

{"MOLECULE": "CCOP(=O)(OCC)[C@@H]1C[C@@H](Cn2ccc(=O)n(C(=O)c3ccccc3)c2=O)ON1C", "REPORTED ENDPOINT": "MCC", "RESULT": "> 100 µM"}

Consider the following items and state reported MCC for each.
1. Nc1nc2c(ncn2COCCO)c(=O)[nH]1
2. CCOP(=O)(OCC)[C@@H]1C[C@@H](Cn2c(=O)n(C(=O)c3ccccc3F)c(=O)c3ccccc32)ON1C (relative stereo)

1: > 440 µM; 2: > 100 µM

Please state MCC for every molecule in the list that follows.
1. CCOP(=O)(OCC)[C@H]1C[C@@H](Cn2c(=O)n(C(=O)c3ccc(F)cc3)c(=O)c3ccccc32)ON1C (relative stereo)
2. CCOP(=O)(OCC)[C@H]1C[C@@H](Cn2ccc(=O)n(C(=O)c3ccccc3)c2=O)ON1C
3. O=c1[nH]c(=O)n([C@H]2C[C@H](O)[C@@H](CO)O2)cc1/C=C/Br
4. CCOP(=O)(OCC)[C@H]1C[C@@H](Cn2c(=O)n(Cc3ccccc3F)c(=O)c3ccccc32)ON1C (relative stereo)

["> 100 µM", "> 100 µM", "> 300 µM", "> 100 µM"]
